- target system: human uPAR (Homo sapiens, UniProt Q03405)
- Construct: host or cells: HEK cells (HEK-uPAR)
- Sequence (Q03405 23-335): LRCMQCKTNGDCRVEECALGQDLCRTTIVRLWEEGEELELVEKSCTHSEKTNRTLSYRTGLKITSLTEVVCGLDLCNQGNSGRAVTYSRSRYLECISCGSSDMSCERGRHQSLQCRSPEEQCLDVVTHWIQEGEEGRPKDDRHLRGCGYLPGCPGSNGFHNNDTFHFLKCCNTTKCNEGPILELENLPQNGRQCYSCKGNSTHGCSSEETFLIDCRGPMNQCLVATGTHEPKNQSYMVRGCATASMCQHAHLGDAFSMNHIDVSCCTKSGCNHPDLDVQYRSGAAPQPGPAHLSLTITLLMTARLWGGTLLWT
- assay procedure: uPAR-binding affinity (KD values), saturation experiments with HEK-uPAR cells
- condition parameters: saturation binding on HEK-uPAR cells, on ice (4 °C) 1 h, 1–1600 nM radiopeptide, ± AE105 40 µM; γ-counter; nonlinear regression; average ± SD, n=3
recorded metric: pKd
pKd here is simply -log10 of the concentration when that concentration is written in mol/L.

Look over these answered cases.
- CC(C)C[C@H](NC(=O)[C@H](Cc1ccc(O)cc1)NC(=O)[C@@H](CCCNC(=N)N)NC(=O)[C@@H](CO)NC(=O)[C@H](Cc1ccccc1)NC(=O)[C@H](CC1CCCCC1)NC(=O)[C@H](CC(=O)O)NC(=O)[C@H](CCCCNC(=O)CCCc1ccc(I)cc1)NC(=O)[C@@H](N)CCCCNC(=O)CN1CCN(CC(=O)O)CCN(CC(=O)O)CCN(CC(=O)O)CC1)C(=O)N[C@@H](Cc1c[nH]c2ccccc12)C(=O)N[C@@H](CO)C(N)=O [[^177Lu]Lu-uPAR-04, metal not drawn]: 7.24
- CC(C)C[C@H](NC(=O)[C@H](Cc1ccc(O)cc1)NC(=O)[C@@H](CCCNC(=N)N)NC(=O)[C@@H](CO)NC(=O)[C@H](Cc1ccccc1)NC(=O)[C@H](CC1CCCCC1)NC(=O)[C@H](CC(=O)O)NC(=O)[C@H](CCCCNC(=O)CCOCCOCCOCCOCCNC(=O)CCCc1ccc(I)cc1)NC(=O)CN1CCN(CC(=O)O)CCN(CC(=O)O)CCN(CC(=O)O)CC1)C(=O)N[C@@H](Cc1c[nH]c2ccccc12)C(=O)N[C@@H](CO)C(N)=O [[^177Lu]Lu-uPAR-02, metal not drawn]: 7.49

Field: next compound
input: Can you look up the measured pKd of CC(C)C[C@H](NC(=O)[C@H](Cc1ccc(O)cc1)NC(=O)[C@@H](CCCNC(=N)N)NC(=O)[C@@H](CO)NC(=O)[C@H](Cc1ccccc1)NC(=O)[C@H](CC1CCCCC1)NC(=O)[C@H](CC(=O)O)NC(=O)[C@H](CCCCNC(=O)CCCc1ccc(I)cc1)NC(=O)CN1CCN(CC(=O)O)CCN(CC(=O)O)CCN(CC(=O)O)CC1)C(=O)N[C@@H](Cc1c[nH]c2ccccc12)C(=O)N[C@@H](CO)C(N)=O [[^177Lu]Lu-uPAR-01, metal not drawn] for me?
output: 7.32

* * *

- assay procedure: in vitro
- condition parameters: human, plasma
We begin with a simple list: items and their reported remaining at 24 h, 10 MBq/200 µL.
Please format your answer as a value with the unit trailing.

* CC(C)C[C@H](NC(=O)[C@H](Cc1ccc(O)cc1)NC(=O)[C@@H](CCCNC(=N)N)NC(=O)[C@@H](CO)NC(=O)[C@H](Cc1ccccc1)NC(=O)[C@H](CC1CCCCC1)NC(=O)[C@H](CC(=O)O)NC(=O)[C@H](CCCCNC(=O)CCOCCOCCOCCOCCNC(=O)CCCc1ccc(I)cc1)NC(=O)CN1CCN(CC(=O)O)CCN(CC(=O)O)CCN(CC(=O)O)CC1)C(=O)N[C@@H](Cc1c[nH]c2ccccc12)C(=O)N[C@@H](CO)C(N)=O [[^177Lu]Lu-uPAR-02, metal not drawn] | 99%

input: Can you look up the measured remaining at 24 h, 10 MBq/200 µL of CC(C)C[C@H](NC(=O)[C@H](Cc1ccc(O)cc1)NC(=O)[C@@H](CCCNC(=N)N)NC(=O)[C@@H](CO)NC(=O)[C@H](Cc1ccccc1)NC(=O)[C@H](CC1CCCCC1)NC(=O)[C@H](CC(=O)O)NC(=O)[C@H](CCCCNC(=O)CCOCCOCCOCCOCCNC(=O)c1ccc(CNC(=O)CCCc2ccc(I)cc2)cc1)NC(=O)CN1CCN(CC(=O)O)CCN(CC(=O)O)CCN(CC(=O)O)CC1)C(=O)N[C@@H](Cc1c[nH]c2ccccc12)C(=O)N[C@@H](CO)C(N)=O [[^177Lu]Lu-uPAR-03, metal not drawn] for me?
output: 99%

* * *

- assay procedure: Biodistribution studies in HEK-uPAR xenograft-bearing nude mice
- condition parameters: female, CD1/nude, mouse, stomach, 5 MBq (0.5 nmol), total radioactivity, 4 h p.i.; 5 MBq, 0.5 nmol; decay-corrected; average ± SD, n=3 animals
recorded metric: tissue uptake at 4 h (%ID/g)
Kindly provide the numeric value in %ID/g only, without the unit symbol.

input: Can you look up the measured tissue uptake at 4 h of CC(C)C[C@H](NC(=O)[C@H](Cc1ccc(O)cc1)NC(=O)[C@@H](CCCNC(=N)N)NC(=O)[C@@H](CO)NC(=O)[C@H](Cc1ccccc1)NC(=O)[C@H](CC1CCCCC1)NC(=O)[C@H](CC(=O)O)NC(=O)[C@H](CCCCNC(=O)CCCc1ccc(I)cc1)NC(=O)[C@@H](N)CCCCNC(=O)CN1CCN(CC(=O)O)CCN(CC(=O)O)CCN(CC(=O)O)CC1)C(=O)N[C@@H](Cc1c[nH]c2ccccc12)C(=O)N[C@@H](CO)C(N)=O [[^177Lu]Lu-uPAR-04, metal not drawn] for me?
output: 1.5

* * *

We begin with a simple list: items and their reported tissue uptake at 24 h.
- assay procedure: Biodistribution studies in HEK-uPAR xenograft-bearing nude mice
- condition parameters: female, CD1/nude, mouse, muscle, 5 MBq (0.5 nmol), total radioactivity, 24 h p.i.; 5 MBq, 0.5 nmol; decay-corrected; average ± SD, n=3 animals
Kindly provide the numeric value in %ID/g only, without the unit symbol.

* CC(C)C[C@H](NC(=O)[C@H](Cc1ccc(O)cc1)NC(=O)[C@@H](CCCNC(=N)N)NC(=O)[C@@H](CO)NC(=O)[C@H](Cc1ccccc1)NC(=O)[C@H](CC1CCCCC1)NC(=O)[C@H](CC(=O)O)NC(=O)[C@H](CCCCNC(=O)CCCc1ccc(I)cc1)NC(=O)CN1CCN(CC(=O)O)CCN(CC(=O)O)CCN(CC(=O)O)CC1)C(=O)N[C@@H](Cc1c[nH]c2ccccc12)C(=O)N[C@@H](CO)C(N)=O [[^177Lu]Lu-uPAR-01, metal not drawn] | 0.57

input: Can you look up the measured tissue uptake at 24 h of CC(C)C[C@H](NC(=O)[C@H](Cc1ccc(O)cc1)NC(=O)[C@@H](CCCNC(=N)N)NC(=O)[C@@H](CO)NC(=O)[C@H](Cc1ccccc1)NC(=O)[C@H](CC1CCCCC1)NC(=O)[C@H](CC(=O)O)NC(=O)[C@H](CCCCNC(=O)CCCc1ccc(I)cc1)NC(=O)[C@@H](N)CCCCNC(=O)CN1CCN(CC(=O)O)CCN(CC(=O)O)CCN(CC(=O)O)CC1)C(=O)N[C@@H](Cc1c[nH]c2ccccc12)C(=O)N[C@@H](CO)C(N)=O [[^177Lu]Lu-uPAR-04, metal not drawn] for me?
output: 0.73

* * *

We begin with a simple list: items and their reported tissue uptake at 24 h.
- assay procedure: in vivo
- condition parameters: female, CD1/nude, mouse, 5 MBq (0.5 nmol), total radioactivity, Heart
Kindly provide the numeric value in %ID/g only, without the unit symbol.

* CC(C)C[C@H](NC(=O)[C@H](Cc1ccc(O)cc1)NC(=O)[C@@H](CCCNC(=N)N)NC(=O)[C@@H](CO)NC(=O)[C@H](Cc1ccccc1)NC(=O)[C@H](CC1CCCCC1)NC(=O)[C@H](CC(=O)O)NC(=O)[C@H](CCCCNC(=O)CCOCCOCCOCCOCCNC(=O)c1ccc(CNC(=O)CCCc2ccc(I)cc2)cc1)NC(=O)CN1CCN(CC(=O)O)CCN(CC(=O)O)CCN(CC(=O)O)CC1)C(=O)N[C@@H](Cc1c[nH]c2ccccc12)C(=O)N[C@@H](CO)C(N)=O [[^177Lu]Lu-uPAR-03, metal not drawn] | 5.2

Field: next compound
input: Can you look up the measured tissue uptake at 24 h of CC(C)C[C@H](NC(=O)[C@H](Cc1ccc(O)cc1)NC(=O)[C@@H](CCCNC(=N)N)NC(=O)[C@@H](CO)NC(=O)[C@H](Cc1ccccc1)NC(=O)[C@H](CC1CCCCC1)NC(=O)[C@H](CC(=O)O)NC(=O)[C@H](CCCCNC(=O)CCOCCOCCOCCOCCNC(=O)CCCc1ccc(I)cc1)NC(=O)CN1CCN(CC(=O)O)CCN(CC(=O)O)CCN(CC(=O)O)CC1)C(=O)N[C@@H](Cc1c[nH]c2ccccc12)C(=O)N[C@@H](CO)C(N)=O [[^177Lu]Lu-uPAR-02, metal not drawn] for me?
output: 2.5

* * *

- assay procedure: Stability of the radiopeptides in mouse blood plasma
- condition parameters: mouse, blood plasma
We begin with a simple list: items and their reported remaining at 24 h, 10 MBq/200 µL.
Kindly provide the numeric value in % only, without the unit symbol.

Look over these answered cases.
* CC(C)C[C@H](NC(=O)[C@H](Cc1ccc(O)cc1)NC(=O)[C@@H](CCCNC(=N)N)NC(=O)[C@@H](CO)NC(=O)[C@H](Cc1ccccc1)NC(=O)[C@H](CC1CCCCC1)NC(=O)[C@H](CC(=O)O)NC(=O)[C@H](CCCCNC(=O)CCCc1ccc(I)cc1)NC(=O)CN1CCN(CC(=O)O)CCN(CC(=O)O)CCN(CC(=O)O)CC1)C(=O)N[C@@H](Cc1c[nH]c2ccccc12)C(=O)N[C@@H](CO)C(N)=O [[^177Lu]Lu-uPAR-01, metal not drawn] | 99
* CC(C)C[C@H](NC(=O)[C@H](Cc1ccc(O)cc1)NC(=O)[C@@H](CCCNC(=N)N)NC(=O)[C@@H](CO)NC(=O)[C@H](Cc1ccccc1)NC(=O)[C@H](CC1CCCCC1)NC(=O)[C@H](CC(=O)O)NC(=O)CN1CCN(CC(=O)O)CCN(CC(=O)O)CCN(CC(=O)O)CC1)C(=O)N[C@@H](Cc1c[nH]c2ccccc12)C(=O)N[C@@H](CO)C(N)=O [[^177Lu]Lu-DOTA-AE105, metal not drawn, reference compound] | 4.6

Field: next molecule
input: Can you look up the measured remaining at 24 h, 10 MBq/200 µL of CC(C)C[C@H](NC(=O)[C@H](Cc1ccc(O)cc1)NC(=O)[C@@H](CCCNC(=N)N)NC(=O)[C@@H](CO)NC(=O)[C@H](Cc1ccccc1)NC(=O)[C@H](CC1CCCCC1)NC(=O)[C@H](CC(=O)O)NC(=O)[C@H](CCCCNC(=O)CCCc1ccc(I)cc1)NC(=O)[C@@H](N)CCCCNC(=O)CN1CCN(CC(=O)O)CCN(CC(=O)O)CCN(CC(=O)O)CC1)C(=O)N[C@@H](Cc1c[nH]c2ccccc12)C(=O)N[C@@H](CO)C(N)=O [[^177Lu]Lu-uPAR-04, metal not drawn] for me?
output: 98

This collection of values is drawn from paper PMC12135066.
